Test system: freshly harvested rat hepatocytes (rHep)
Protocol Details: Metabolic stability assay, freshly harvested rat hepatocytes
Type: in vitro ADME
Experimental Context: predicted maximum oral bioavailability
Readout Label: F max rHep [%] (%)
Reply numerically in %, unit not repeated.

[[record]]
molecule = "O=S(=Nc1cccc(F)c1)(c1ccccc1)N1CCCCC1 (stereo not shown)"
experimental_target = "freshly harvested rat hepatocytes (rHep)"
readout_label = "F max rHep [%]"
number = 2.1

[[record]]
molecule = "O=S(=NC(F)(F)F)(c1ccccc1)N1CCCCC1 (stereo not shown)"
experimental_target = "freshly harvested rat hepatocytes (rHep)"
readout_label = "F max rHep [%]"
number = 6.8

[[record]]
molecule = "CS(=O)(=O)N=S(=O)(c1ccccc1)N1CCCCC1 (stereo not shown)"
experimental_target = "freshly harvested rat hepatocytes (rHep)"
readout_label = "F max rHep [%]"
number = 20


Next, consider the following molecule.
[Q] Give a short answer stating reported F max rHep [%] for CN=S(=O)(c1ccccc1)N1CCCCC1 (stereo not shown) .
[A] 19

The measurements presented in this section are drawn from paper PMC6055826.
